# SYSTEM: BCL-XL (Homo sapiens, UniProt Q07817)
# Construct: Recombinant full length BCL-XL was produced; poly-His (N)
# Sequence (Q07817 whole entry, species assumed): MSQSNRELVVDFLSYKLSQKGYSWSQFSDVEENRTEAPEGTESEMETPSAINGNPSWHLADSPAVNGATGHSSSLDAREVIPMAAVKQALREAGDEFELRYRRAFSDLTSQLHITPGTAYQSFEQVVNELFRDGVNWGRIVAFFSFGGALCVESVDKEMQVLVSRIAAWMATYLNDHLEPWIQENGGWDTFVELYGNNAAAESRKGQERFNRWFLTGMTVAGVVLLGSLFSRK
# ASSAY DETAILS: Inhibition evaluated by measuring dissociation constant (Kd)
READOUT NAME: Kd (µM)
Provide only the numeric value, understood in µM.

Known results for compounds:
>>> val("CC(=C\\c1ccccc1)/C=C1/SC(=S)N(C(C(=O)O)c2ccccc2)C1=O (centres unmarked) [Compound 1]")
1
>>> val("CC(C)C(C(=O)O)N1C(=O)C(=CC=Cc2ccccc2)SC1=S (centres unmarked) [Compound 9]")
10.6
>>> val("CC(=Cc1ccccc1)C=C1SC(=S)N(CC(=O)O)C1=O [Compound 11]")
11.8
>>> val("CC(C(=O)O)N1C(=O)C(=CC=Cc2ccccc2)SC1=S (centres unmarked) [Compound 10]")
34.4

Next:
Look up and report measured Kd for this entry: CC(=C\c1ccccc1)/C=C1/SC(=S)N(C(C(=O)O)C(C)C)C1=O (centres unmarked) [Compound 2]
5.7

Reference source: patent US20090124675A1
